Biological target: Full-length (FL)-PRMT5-MEP50 enzyme complex (Homo sapiens, UniProt O14744)
Construct: Full-length (FL)-PRMT5-MEP50 enzyme complex (recombinant proteins from baculovirus-transfected Sf21 cells: FL-PRMT5; MW=73837 kDa and FL-MEP50; MW=38614); made in house; host or cells: baculovirus-transfected Sf21 cells
Sequence (O14744 whole entry): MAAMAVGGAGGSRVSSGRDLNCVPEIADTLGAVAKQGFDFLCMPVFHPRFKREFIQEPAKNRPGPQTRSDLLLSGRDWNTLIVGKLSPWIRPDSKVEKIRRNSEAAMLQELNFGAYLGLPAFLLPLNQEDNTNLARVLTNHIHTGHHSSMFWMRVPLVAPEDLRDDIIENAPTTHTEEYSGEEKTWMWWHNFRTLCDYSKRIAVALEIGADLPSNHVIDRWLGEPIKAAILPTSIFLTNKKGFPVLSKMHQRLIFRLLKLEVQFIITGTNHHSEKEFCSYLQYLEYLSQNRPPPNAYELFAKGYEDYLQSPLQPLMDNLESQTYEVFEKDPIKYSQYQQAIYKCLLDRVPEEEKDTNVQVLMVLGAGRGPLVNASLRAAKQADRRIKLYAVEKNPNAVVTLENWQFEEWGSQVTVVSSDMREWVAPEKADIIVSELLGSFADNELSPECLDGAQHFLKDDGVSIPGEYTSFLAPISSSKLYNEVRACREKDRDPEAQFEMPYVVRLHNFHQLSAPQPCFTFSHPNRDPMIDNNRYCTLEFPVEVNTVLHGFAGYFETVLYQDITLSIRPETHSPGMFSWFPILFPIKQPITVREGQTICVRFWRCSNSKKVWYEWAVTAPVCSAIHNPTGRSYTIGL
Sequence (Q9BQA1 whole entry partner): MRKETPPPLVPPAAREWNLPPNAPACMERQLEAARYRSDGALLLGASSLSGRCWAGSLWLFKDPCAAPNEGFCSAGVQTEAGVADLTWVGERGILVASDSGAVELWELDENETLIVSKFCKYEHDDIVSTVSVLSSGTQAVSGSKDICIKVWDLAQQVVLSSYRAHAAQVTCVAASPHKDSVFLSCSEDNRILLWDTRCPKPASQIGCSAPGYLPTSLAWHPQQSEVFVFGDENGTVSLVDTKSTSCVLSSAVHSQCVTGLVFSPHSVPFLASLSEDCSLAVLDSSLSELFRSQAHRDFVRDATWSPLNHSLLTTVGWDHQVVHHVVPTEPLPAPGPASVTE
Assay: PRMT5-MEP50 Enzyme Methylation Assay (Version B)
Type: biochemical
Conditions: second value of 7 parameter biphasic fit; read-out: Enzyme Methylation Assay Version B (EC50 2)
What EC50 was measured for each of the following?
Give bare numbers, in µM.

Below, 3 compounds whose answers are already recorded.
O=C(c1ccc(C(=O)N2C3CCC2COC3)cc1OC1CC1)N1CCC2(CC1)Cc1ccccc1CN2 | 2.86
CCOc1cc(C(=O)N2C3CCC2COC3)ccc1C(=O)N1CCC2(Cc3ccccc3CN2)C(O)C1 (single isomer, unassigned) [Example 86] | 28.8
O=C(c1ccc(C(=O)N2C3CCC2COC3)cc1)N1CCC2(Cc3ccccc3CN2)C(O)C1 (single isomer, unassigned) [Example 152] | 0.335

Shift focus to the following entry.
Would you kindly share the measured EC50 for `CC(=O)N1CCC(Nc2cc(C(=O)N3CCC4(CC3)Cc3ccccc3CN4)ccn2)CC1` ?
8.85

Measured values drawn from patent US12441730B2 for this set.
